GI50 values for the molecules below.
Test system: N87 (HER2 Amp)
METHOD_DESCRIPTION: Growth inhibition GI50 in vitro (CCK8/MTT, 72 h)
Type: cell-based, human
TEST_PARAMETERS: Homo sapiens; HER2 positive cell line; range of GI50; read-out: GI50 N87

Examples from the recorded data:
MOLECULE | EXPERIMENTAL_ENDPOINT | OBSERVED_RESULT
C=CC(=O)Nc1cc(Nc2nccc(N3CCc4ccccc43)n2)c(OC)cc1N(C)CCN(C)C [Compound 31] | GI50 | 100 to 1000 nM
C=CC(=O)Nc1cc(Nc2ncnc(Nc3cccc(Cl)c3F)n2)c(OC)cc1N(C)CCN(C)C [Compound 110] | GI50 | < 10 nM
C=CC(=O)Nc1cc(Nc2ncnc(Nc3cccc(F)c3)n2)c(OC)cc1N(C)CCN(C)C [Compound 114] | GI50 | < 10 nM
C=CC(=O)Nc1cc(Nc2cc(-c3cn(CC)c4ccccc34)ncn2)c(OC)cc1N(C)CCN(C)C [Compound 181] | GI50 | 10 to 100 nM

Turning to the following molecule.
[ask] // GI50 lookup, key: C=CC(=O)Nc1cc(Nc2nccc(Nc3ccc(OCc4ccccn4)c(Cl)c3)n2)c(OC)cc1N1CCC(N(C)C)CC1 [Compound 28]
[reply] 10 to 100 nM

* * *

Test system: PC-9 (EGFR dE746-A750)
METHOD_DESCRIPTION: Growth inhibition GI50 in vitro (CCK8/MTT, 72 h)
Assay type: cell-based, human
TEST_PARAMETERS: Homo sapiens; Table 13, 72 h; read-out: Range of GI50 PC-9 (EGFR dE746-A750)
EXPERIMENTAL_ENDPOINT: GI50

Illustrative cases are given below, each with its answer.
SAMPLE_SMILES | MEASURED_TARGET | EXPERIMENTAL_ENDPOINT | OBSERVED_RESULT
C=CC(=O)Nc1cc(Nc2nccc(-n3ccc4c(OC)cccc43)n2)c(OC)cc1N1CCC(N2CCN(C)CC2)CC1 | PC-9 (EGFR dE746-A750) | GI50 | 0.1 to 1 µM
C=CC(=O)Nc1cc(Nc2cc(Nc3ccc(OC)c(C(C)=O)c3)ncn2)c(OC)cc1N(C)CCN(C)C | PC-9 (EGFR dE746-A750) | GI50 | 0.01 to 0.1 µM
C=CC(=O)Nc1cc(Nc2cc(Nc3cc(OC)c(Cl)cc3Cl)ncn2)c(OC)cc1OCCCN1CCCC1 | PC-9 (EGFR dE746-A750) | GI50 | 0.01 to 0.1 µM
C=CC(=O)Nc1cc(Nc2cc(Nc3cccc(C#N)c3)ncn2)c(OC)cc1N(C)CCN(C)C | PC-9 (EGFR dE746-A750) | GI50 | < 0.01 µM
C=CC(=O)Nc1cc(Nc2cc(Nc3ccc(OC(C)(C)C)c(Cl)c3)ncn2)c(OC)cc1N(C)CCN(C)C | PC-9 (EGFR dE746-A750) | GI50 | < 0.01 µM

[ask] Reported GI50 for C=CC(=O)Nc1cc(Nc2cc(Nc3cc(F)c(OC)c(Cl)c3)ncn2)c(OC)cc1N(C)CCN(C)C : what is it?
[reply] < 0.01 µM

[ask] Now the same for C=CC(=O)Nc1cc(Nc2nccc(-n3ccc4c(OCCOC)cccc43)n2)c(OC)cc1N(C)CCN(C)C
[reply] < 0.01 µM

[ask] Try C=CC(=O)Nc1cc(Nc2cc(Nc3cc(OC)c(Cl)cc3Cl)ncn2)c(OC)cc1OCCN1CCCC1 next.
[reply] 0.01 to 0.1 µM

[ask] Input C=CC(=O)Nc1cc(Nc2cc(Nc3ccc(Cl)c(C(F)(F)F)c3)ncn2)c(OC)cc1N(C)CCN(C)C
[reply] < 0.01 µM

[ask] One more molecule: C=CC(=O)Nc1cc(Nc2nccc(-n3ccc4c(OC)cc(F)cc43)n2)c(OC)cc1N(C)CCN(C)C
[reply] < 0.01 µM

[ask] Entry C=CC(=O)Nc1cc(Nc2ncc(Cl)c(-n3ccc4c(OC)cccc43)n2)c(OC)cc1N(C)CCN(C)C please
[reply] < 0.01 µM

* * *

Test system: SK-BR-3 (Her2 amp)
METHOD_DESCRIPTION: Growth inhibition GI50 in vitro (CCK8/MTT, 72 h)
Format: cell-based, human
TEST_PARAMETERS: Homo sapiens, SK-BR-3; HER2 positive cell line; range of GI50; read-out: GI50 SK-BR-3
EXPERIMENTAL_ENDPOINT: GI50

[ask] // returns reported GI50 for input C=CC(=O)Nc1cc(Nc2nccc(-n3nnc4ccccc43)n2)c(OC)cc1N(C)CCN(C)C [Compound 107]
[reply] 10 to 100 nM

[ask] Also need C=CC(=O)Nc1cc(Nc2cc(Nc3ccc(F)c(Cl)c3)ncn2)c(OC)cc1N1CCC(N2CCOCC2)CC1 [Compound 143] , thanks.
[reply] < 10 nM

[ask] Follow-up item: C=CC(=O)Nc1cc(Nc2cc(-c3cn(C(C)C)c4ccccc34)ncn2)c(OC)cc1N(C)CCN(C)C [Compound 183]
[reply] 10 to 100 nM

[ask] Try the molecule C=CC(=O)Nc1cc(Nc2nccc(Nc3ccc(OCc4ccccn4)c(Cl)c3)n2)c(OC)cc1N(C)CCN(C)C [Compound 18]
[reply] 10 to 100 nM

[ask] // query: C=CC(=O)Nc1cc(Nc2ncnc(Nc3cccc(Br)c3)n2)c(OC)cc1N1CCC(N2CCCCC2)CC1 [Compound 119]
[reply] 10 to 100 nM

[ask] Then C=CC(=O)Nc1cc(Nc2nccc(-n3cnc4ccccc43)n2)c(OC)cc1N(C)CCN(C)C [Compound 106] ?
[reply] 10 to 100 nM

[ask] Now this one: C=CC(=O)Nc1cc(Nc2nccc(-n3ccc4ccc(Br)cc43)n2)c(OC)cc1N(C)CCN(C)C [Compound 62]
[reply] 10 to 100 nM

[ask] Another molecule to look at: C=CC(=O)Nc1cc(Nc2cc(Nc3ccc(F)c(Cl)c3)ncn2)c(OC)cc1N1CCN(C2CCN(C)CC2)CC1 [Compound 147]
[reply] < 10 nM

[ask] Now this one: C=CC(=O)Nc1cc(Nc2cc(Nc3cc(F)cc(Br)c3)ncn2)c(OC)cc1N(C)CCN(C)C [Compound 139]
[reply] < 10 nM

[ask] Another molecule to look at: C=CC(=O)Nc1cc(Nc2cc(Nc3ccc(F)c(Cl)c3)ncn2)c(OC)cc1OCCN1CCN(C)CC1 [Compound 150]
[reply] < 10 nM

* * *

System: NCI-H1781 (HER2 exon 20 G776VC mutation)
METHOD_DESCRIPTION: Growth inhibition GI50 in vitro (CCK8/MTT, 72 h)
Format: cell-based
TEST_PARAMETERS: Homo sapiens, NCI-H1781; Table 16; 1000 nM to 0.03 nM serial dilution; read-out: GI50 H1781 (HER2 G776VC)
EXPERIMENTAL_ENDPOINT: GI50 (nM)
Answer format: numeric, nM implied, no suffix.

[ask] // query GI50 value for entry C=CC(=O)Nc1cc(Nc2nccc(-n3ccc4c(OC)cc(F)cc43)n2)c(OC)cc1N(C)CCN(C)C
[reply] 15.6

* * *

System: N87 (HER2 Amp)
METHOD_DESCRIPTION: Growth inhibition GI50 in vitro (CCK8/MTT, 72 h)
Type: cell-based, human
TEST_PARAMETERS: Homo sapiens; HER2 positive cell line; range of GI50; read-out: GI50 N87
EXPERIMENTAL_ENDPOINT: GI50

COMPOUND | OBSERVED_RESULT
C=CC(=O)Nc1cc(Nc2cc(Nc3ccc(F)c(Cl)c3)ncn2)c(OC)cc1N(C)CCN(C)C [Compound 140] | < 10 nM
C=CC(=O)Nc1cc(Nc2cc(Nc3cccc(C(F)(F)F)c3)ncn2)c(OC)cc1N(C)CCN(C)C [Compound 134] | 10 to 100 nM
C=CC(=O)Nc1cc(Nc2nccc(Nc3cccc(F)c3)n2)c(OC)cc1N(C)CCN(C)C [Compound 3] | 10 to 100 nM
C=CC(=O)Nc1cc(Nc2nccc(-n3ccc4ccccc43)n2)c(OC)cc1N(C)CCN(C)C [Compound 32] | 10 to 100 nM
C=CC(=O)Nc1cc(Nc2cc(Nc3ccc(F)c(Cl)c3)ncn2)c(OC)cc1OCCN1CCN(C)CC1 [Compound 150] | 10 to 100 nM

[ask] Name the recorded GI50 for C=CC(=O)Nc1cc(Nc2nccc(-n3cc(C)c4ccccc43)n2)c(OC)cc1N(C)CCN(C)C [Compound 57] .
[reply] 100 to 1000 nM

[ask] Okay, and C=CC(=O)Nc1cc(Nc2nccc(-n3ccc4cc(F)c(F)cc43)n2)c(OC)cc1N(C)CCN(C)C [Compound 103] ?
[reply] 10 to 100 nM

[ask] Ok, now C=CC(=O)Nc1cc(Nc2ncnc(Nc3cccc(Cl)c3)n2)c(OC)cc1N(C)CCN(C)C [Compound 108]
[reply] < 10 nM

[ask] Now the compound C=CC(=O)Nc1cc(Nc2ncnc(Nc3cccc(Br)c3)n2)c(OC)cc1N1CCCN(C)CC1 [Compound 130]
[reply] < 10 nM

[ask] Would you kindly repeat that for C=CC(=O)Nc1cc(Nc2nccc(-n3ccc4c(OC)cccc43)n2)c(OC)cc1N(C)CCN(C)C [Compound 99] ?
[reply] < 10 nM

[ask] Next record, please: C=CC(=O)Nc1cc(Nc2nccc(Nc3ccc(F)c(Cl)c3)n2)c(OC)cc1N(C)CCN(C)C [Compound 13]
[reply] 10 to 100 nM

[ask] Subsequent entry: C=CC(=O)Nc1cc(Nc2cc(Nc3ccc(F)c(Cl)c3)ncn2)c(OC)cc1N1CCC(N2CCOCC2)CC1 [Compound 143]
[reply] < 10 nM

[ask] Would you mind doing C=CC(=O)Nc1cc(Nc2cc(-c3cn(C)c4ccccc34)ncn2)c(OC)cc1N1CCC(N2CCN(C)CC2)CC1 [Compound 176] as well?
[reply] 10 to 100 nM

[ask] Now the compound C=CC(=O)Nc1cc(Nc2cc(-c3cn(C)c4ccccc34)ncn2)c(OC)cc1N(C)CCN1CCCC1 [Compound 178]
[reply] 10 to 100 nM
